target: Cytochrome P450 2C9 (Homo sapiens, UniProt P11712); test: Inhibition of CYP2C9 (unknown origin); assay type: ADME
Sequence (P11712 whole entry): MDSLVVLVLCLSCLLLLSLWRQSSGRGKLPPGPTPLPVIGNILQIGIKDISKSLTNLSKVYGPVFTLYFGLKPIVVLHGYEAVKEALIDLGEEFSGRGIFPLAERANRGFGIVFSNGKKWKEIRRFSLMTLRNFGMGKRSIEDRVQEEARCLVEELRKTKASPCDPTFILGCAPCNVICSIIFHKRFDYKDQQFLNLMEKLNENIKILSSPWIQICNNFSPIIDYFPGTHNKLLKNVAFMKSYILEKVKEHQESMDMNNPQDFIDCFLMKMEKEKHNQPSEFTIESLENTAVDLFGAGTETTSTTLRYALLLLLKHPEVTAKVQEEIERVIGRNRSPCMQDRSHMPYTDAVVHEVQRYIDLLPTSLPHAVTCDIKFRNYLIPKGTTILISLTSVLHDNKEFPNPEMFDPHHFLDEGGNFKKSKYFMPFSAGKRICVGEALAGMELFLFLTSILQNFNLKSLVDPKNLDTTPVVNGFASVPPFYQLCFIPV
Task for the reader: assign each of the following compounds its reported IC50.

Consider the compound C=CC(=O)Nc1cc(Oc2nc(Nc3ccc(N4CCN(C)CC4)cc3OC)ccc2N2CCCCC2)ccc1C and give its measured IC50.
> 10 µM

Requested field: IC50. Item: C=CC(=O)Nc1cc(Oc2nc(Nc3ccc(N4CCN(C)CC4)cc3OC)ccc2N2CCOCC2)ccc1C
> 10 µM

----------
assay: Intrinsic clearance in human liver microsomes assessed per mg protein measured after 60 mins in presence of NADPH by LC-MS/MS analysis; type: ADME, Microsome; conditions: read-out: CLH
REPORTED ENDPOINT: microsomal CLint (µL/min/mg)
Just the number please, in µL/min/mg, no unit attached.

Report microsomal CLint for C=CC(=O)Nc1cc(Oc2nc(Nc3ccc(N4CCC(N(C)C)CC4)cc3OC)ccc2N2CCCCC2)ccc1C please.
2.5

I am curious: what microsomal CLint value has been reported for C=CC(=O)Nc1cc(Oc2nc(Nc3ccc(N4CCN(C)CC4)cc3OC)ccc2N2CCOCC2)ccc1C ?
1.9

Consider the compound shown here: C=CC(=O)Nc1cc(Oc2nc(Nc3ccc(N4CCN(C)CC4)cc3OC)ccc2N2CCCC(O)C2)ccc1C (racemic) What is its recorded microsomal CLint?
4.9

Value lookup for microsomal CLint; key = C=CC(=O)Nc1cc(Oc2nc(Nc3ccc(N4CCN(C)CC4)nc3OC)ccc2N2CCCCC2)ccc1C
6

Which measured microsomal CLint value corresponds to C=CC(=O)Nc1cccc(Oc2nc(Nc3ccc(N4CCN(C)CC4)cc3OC)ccc2Cl)c1 ?
5.4

Field request: microsomal CLint | item: C=CC(=O)Nc1cc(Oc2nc(Nc3ccc(N4CCN(C)CC4)cc3OC)ccc2N2CCCC2)ccc1C
4.3

Quick one: microsomal CLint of C=CC(=O)Nc1cc(Oc2nc(Nc3ccc(N4CCN(C)CC4)cc3OC)ccc2N2CCCCC2)ccc1C(F)(F)F ?
5.2

Requested read-out: microsomal CLint. Entry: C=CC(=O)Nc1cc(Oc2nc(Nc3ccc(N4CCN(C)CC4)cc3OC)ccc2N2CCN(C)CC2)ccc1C
3.7

Which microsomal CLint value is on record for C=CC(=O)Nc1cc(Oc2nc(Nc3ccc(N4CCN(C)CC4)cc3)ccc2N2CCCCC2)ccc1C ?
2.9

GET /values?readout=microsomal CLint&item= C=CC(=O)Nc1cc(Oc2nc(Nc3ccc(N4CCN(C)CC4)cc3OC)ccc2N2CCCCC2)ccc1C
1.8

Bench note: what microsomal CLint did C=CC(=O)Nc1cc(Oc2nc(Nc3ccc(N4CCN(C)CC4)cc3OC)ccc2N2CCCC2)ccc1C(F)(F)F show?
3.9

----------
target: Cathepsin B (Homo sapiens); assay: Inhibition of recombinant human C-terminal polyhistidine-tagged cathepsin B (Arg18 to Ile339 residues) expressed in HEK293 cells using Z-Leu-Arg-AMC as substrate preincubated for 30 mins followed by substrate addition and measured after 30 mins
REPORTED ENDPOINT: IC50

I would be grateful if you could share the reported IC50 for C=CC(=O)Nc1cc(Oc2nc(Nc3ccc(N4CCN(C)CC4)cc3OC)ccc2N2CCCCC2)ccc1C .
3 to 10 µM

Look up IC50: C=CC(=O)Nc1cc(Oc2nc(Nc3ccc(N4CCN(C)CC4)cc3OC)ccc2N2CCOCC2)ccc1C
3 to 10 µM

Would you mind telling me what IC50 value was observed for C=CC(=O)Nc1cc(Oc2nc(Nc3ccc(N4CCN(C)CC4)cc3OC)ccc2N2CCCC2)ccc1C ?
3 to 10 µM
